# Target or test system: Prostaglandin D2 receptor 2 (Rattus norvegicus, UniProt Q6XKD3)
# Sequence (Q6XKD3 whole entry): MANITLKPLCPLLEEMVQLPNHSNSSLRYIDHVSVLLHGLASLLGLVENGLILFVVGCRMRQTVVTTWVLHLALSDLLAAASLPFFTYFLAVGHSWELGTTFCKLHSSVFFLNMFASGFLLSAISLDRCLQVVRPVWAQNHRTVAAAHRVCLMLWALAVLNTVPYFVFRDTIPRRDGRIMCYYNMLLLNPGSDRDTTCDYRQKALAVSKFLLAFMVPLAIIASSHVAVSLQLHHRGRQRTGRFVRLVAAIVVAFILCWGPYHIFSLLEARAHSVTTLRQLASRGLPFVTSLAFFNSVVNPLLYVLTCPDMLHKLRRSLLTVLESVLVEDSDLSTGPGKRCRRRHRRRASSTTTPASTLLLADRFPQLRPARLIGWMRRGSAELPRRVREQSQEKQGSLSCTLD
# Assay overview: Binding affinity to rat CRTh2 receptor
pIC50: −log10 of the molar value.
Observation type: pIC50

{"Mol smiles": "CCS(=O)(=O)c1ccc(-c2cc(C(F)(F)F)ccc2OCC(=O)O)c(C)c1", "Numeric readout": 8.89}

----------
Known IC50 of a selection of compounds
# Target or test system: Prostaglandin D2 receptor 2 (Homo sapiens)
# Sequence (Q9Y5Y4 whole entry): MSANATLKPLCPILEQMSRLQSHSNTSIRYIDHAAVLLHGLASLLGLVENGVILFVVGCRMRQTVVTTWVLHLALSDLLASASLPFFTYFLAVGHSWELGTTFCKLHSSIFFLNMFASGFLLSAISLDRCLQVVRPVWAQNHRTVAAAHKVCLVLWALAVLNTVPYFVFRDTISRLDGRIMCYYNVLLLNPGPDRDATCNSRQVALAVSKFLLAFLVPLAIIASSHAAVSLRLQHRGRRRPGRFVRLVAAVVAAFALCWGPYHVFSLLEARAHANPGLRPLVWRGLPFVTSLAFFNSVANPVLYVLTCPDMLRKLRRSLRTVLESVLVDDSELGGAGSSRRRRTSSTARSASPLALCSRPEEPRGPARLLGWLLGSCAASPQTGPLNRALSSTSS
# Assay overview: Antagonist activity at human CRTh2 receptor expressed in CHO cells assessed as inhibition of PGD2-induced calcium flux in presence of 1% bovine serum albumin
# Assay type: functional, cell-based

{"Mol smiles": "CCS(=O)(=O)c1ccc(-c2cc(C(F)(F)F)ccc2OCC(=O)O)c(C)c1", "IC50, nM": 29}
{"Mol smiles": "N#Cc1cccc(-c2cc(Cl)ccc2OCC(=O)O)c1", "IC50, nM": 10}
